# MEASURED_ON: Mannose-6-phosphate isomerase (Homo sapiens) (UniProt P34949)
# Sequence (P34949 whole entry, looked up): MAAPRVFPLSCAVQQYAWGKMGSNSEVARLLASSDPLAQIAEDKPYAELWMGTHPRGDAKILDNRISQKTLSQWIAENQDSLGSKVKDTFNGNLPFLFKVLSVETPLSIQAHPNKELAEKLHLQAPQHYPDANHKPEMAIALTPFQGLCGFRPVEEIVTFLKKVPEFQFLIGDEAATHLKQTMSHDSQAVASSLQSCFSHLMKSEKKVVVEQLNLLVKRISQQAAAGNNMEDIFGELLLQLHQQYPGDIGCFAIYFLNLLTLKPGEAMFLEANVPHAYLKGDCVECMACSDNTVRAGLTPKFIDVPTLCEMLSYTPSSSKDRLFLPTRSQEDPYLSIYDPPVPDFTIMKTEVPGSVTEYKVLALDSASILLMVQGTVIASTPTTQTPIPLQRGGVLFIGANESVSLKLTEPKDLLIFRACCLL
# TEST_DESCRIPTION: inhibitors of human PMI, primary screen, biochemical, fluorescence intensity, coupled assay (AID 1209)
# TEST_PARAMETERS: purified PMI enzyme, at 20 µM
Hit rate of the full screen: of about 190,000 compounds, about 810 (0.43%) were called active. Rule as the data show it: active = inhibition above about 50%; inactive = the rest. The sample as a whole holds a higher share of actives than the screen did.
Return exactly one item of active, inactive

{"MOLECULE": "CN(C)Cc1c(O)ccc2c3c(c(=O)oc12)CCCCC3", "CLASS": "inactive"}
{"MOLECULE": "c1ccc(CNc2ncnc3nc[nH]c23)nc1", "CLASS": "inactive"}
{"MOLECULE": "O=c1oc2c(CN3CCOCC3)c(O)ccc2c2ccccc12", "CLASS": "inactive"}
{"MOLECULE": "Cc1ccc(NC(=O)Nc2c(C)n(C)n(-c3ccccc3)c2=O)cc1C", "CLASS": "inactive"}
{"MOLECULE": "C1=C(c2ccc(-c3ccccc3)cc2)Nc2ncnn2C1c1ccco1 (stereo unspecified)", "CLASS": "active"}

State the result this test recorded for O=C(NCC(=O)N(Cc1cccs1)C(C(=O)NC1CCCCC1)c1ccco1)c1ccco1 (stereo unspecified) .
inactive
